Data origin: patent US5763596A

test system: Female SA rats; test: liver toxicity, serum SGOT, SGPT and total bilirubin; assay type: in vivo, rat; design: unit not given here; conditions: 2 x 37.5 μmol/kg i.v. infusion (total 75 μmol/kg), 12 h after second dose
Counter-ions that a name gives are not always drawn.
reported endpoint: average serum content of SGOT
Just the number, please, no unit after it.

The recorded average serum content of SGOT for entry O[C@@H]1[C@H](O)CO[C@H]1n1cc(-c2ccccc2)c2c(Nc3ccccc3)ncnc21 equals 114

The recorded average serum content of SGOT for entry O[C@@H]1[C@H](O)CO[C@H]1n1cc(-c2ccc(F)cc2)c2c(Nc3ccc(F)cc3)ncnc21 equals 130

The recorded average serum content of SGOT for entry O[C@@H]1[C@H](O)CO[C@H]1n1cc(-c2ccccc2)c2c(Nc3ccc(CCN4CCNCC4)cc3)ncnc21 [#43, trihydrochloride salt] equals 99

The recorded average serum content of SGOT for entry OCC1(CO)O[C@@H](n2cc(-c3ccccc3)c3c(Nc4ccccc4)ncnc32)[C@H](O)[C@@H]1O equals 65

The recorded average serum content of SGOT for entry O[C@@H]1[C@H](O)CO[C@H]1n1cc(-c2ccccc2)c2c(Nc3ccc(F)cc3)ncnc21 equals 61

The recorded average serum content of SGOT for entry O[C@H]1[C@H](n2cc(-c3ccccc3)c3c(Nc4ccc(F)cc4)ncnc32)OC2(CC2)[C@H]1O equals 560
